Provenance of the data: paper PMC8041276

- Study target: 5-HT7R (Homo sapiens)
- Construct: expressed in transfected cells
- Sequence (P34969 1-432): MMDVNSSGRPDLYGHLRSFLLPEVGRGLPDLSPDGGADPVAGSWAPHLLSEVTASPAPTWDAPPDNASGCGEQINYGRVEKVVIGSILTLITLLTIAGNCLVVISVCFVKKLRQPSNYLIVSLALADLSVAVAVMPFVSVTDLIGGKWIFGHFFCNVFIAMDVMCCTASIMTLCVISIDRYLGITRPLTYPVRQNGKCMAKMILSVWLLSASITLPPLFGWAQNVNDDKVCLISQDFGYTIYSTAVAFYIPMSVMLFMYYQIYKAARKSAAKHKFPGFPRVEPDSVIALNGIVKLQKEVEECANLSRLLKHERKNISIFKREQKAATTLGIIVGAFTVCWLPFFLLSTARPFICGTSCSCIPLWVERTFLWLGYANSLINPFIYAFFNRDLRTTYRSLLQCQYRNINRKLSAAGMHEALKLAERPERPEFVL
- Assay remarks: [3H]-5-CT radioligand binding assay, HEK293 cells
- Conditions used: mean of three experiments
Assign pKi to each entry below.
Numbers only, as −log10 of the molar value.

A selection of reference data follows.
| Structure smiles | Readout value |
| --- | --- |
| O=C(N[C@H]1CCNC1)c1ccn(S(=O)(=O)c2cccc(Cl)c2)c1-c1ccccc1 | 4.18 |
| O=C(N[C@H]1CCNC1)c1ccn(S(=O)(=O)c2cccc(Cl)c2)c1-c1cccc(F)c1 | 5.15 |
| O=C(N[C@@H]1CCNC1)c1ccn(S(=O)(=O)c2cccc(Cl)c2)c1-c1ccc(F)cc1 | 4.38 |

Data request, read-out pKi, for O=C(N[C@H]1CCNC1)c1ccn(S(=O)(=O)c2cccc(Cl)c2)c1-c1ccc(F)cc1
5.45
